test_description: self-splicing fitness, log relative to wild type (ln ratio); higher = more splicing; Tetrahymena group I intron in knt gene, E. coli kanamycin selection, DiMSum; sequences stand for … in CUCUCU…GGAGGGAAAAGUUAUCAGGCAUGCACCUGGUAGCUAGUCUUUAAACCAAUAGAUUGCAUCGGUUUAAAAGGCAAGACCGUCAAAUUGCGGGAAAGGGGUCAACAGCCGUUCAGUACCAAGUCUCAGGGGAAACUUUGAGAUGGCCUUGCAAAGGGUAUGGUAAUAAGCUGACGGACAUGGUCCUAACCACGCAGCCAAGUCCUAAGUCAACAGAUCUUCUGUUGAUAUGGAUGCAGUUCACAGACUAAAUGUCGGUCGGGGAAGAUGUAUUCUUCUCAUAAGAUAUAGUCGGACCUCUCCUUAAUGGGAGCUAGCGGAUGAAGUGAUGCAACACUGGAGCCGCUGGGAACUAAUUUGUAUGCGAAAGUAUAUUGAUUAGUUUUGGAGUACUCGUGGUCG;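 also: selection with 25 µg/mL kanamycin versus none on LB agar overnight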
run_conditions: 30 °C
# Lookup of reported self-splicing fitness (ln) keyed by entry

{"chain": "UUAGAGCAAUAUUACGAGUG", "self-splicing fitness (ln)": -3.12}
{"chain": "GUGUAGCAAUAUUACGUCCU", "self-splicing fitness (ln)": -0.899}
{"chain": "GAUCAGCAAUAUUACGACGA", "self-splicing fitness (ln)": -0.224}
{"chain": "UUGCAGCAAUAUUACGUUGC", "self-splicing fitness (ln)": -1.47}
{"chain": "GUCGAGCAAUAUUACGAAUG", "self-splicing fitness (ln)": -4.06}

*Q* Please list self-splicing fitness (ln) recorded for the sequence CGGUAGCAAUAUUACGACCA
*A* -0.494

*Q* Please list self-splicing fitness (ln) recorded for the sequence GAGCAGCAAUAUUACGAUAG
*A* -3.7

*Q* Please list self-splicing fitness (ln) recorded for the sequence UACCAGCAAUAUUACGCGAG
*A* -0.774

*Q* Please list self-splicing fitness (ln) recorded for the sequence AGACAGCAAUAUUACGAGGA
*A* -3.17

*Q* Please list self-splicing fitness (ln) recorded for the sequence CUAGAGCAAUAUUACGCGGU
*A* -1.42

*Q* Please list self-splicing fitness (ln) recorded for the sequence AACCAGCAAUAUUACGGGAU
*A* -2.59

*Q* Please list self-splicing fitness (ln) recorded for the sequence CCAGAGCAAUAUUACGGUGA
*A* -3.55

*Q* Please list self-splicing fitness (ln) recorded for the sequence AUCCAGCAAUAUUACGCGGA
*A* -3.7

---

# Lookup of reported self-splicing fitness (ln) keyed by entry
test_description: self-splicing fitness, log relative to wild type (ln ratio); higher = more splicing; Tetrahymena group I intron in knt gene, E. coli kanamycin selection, DiMSum; sequences stand for … in CUCUCU…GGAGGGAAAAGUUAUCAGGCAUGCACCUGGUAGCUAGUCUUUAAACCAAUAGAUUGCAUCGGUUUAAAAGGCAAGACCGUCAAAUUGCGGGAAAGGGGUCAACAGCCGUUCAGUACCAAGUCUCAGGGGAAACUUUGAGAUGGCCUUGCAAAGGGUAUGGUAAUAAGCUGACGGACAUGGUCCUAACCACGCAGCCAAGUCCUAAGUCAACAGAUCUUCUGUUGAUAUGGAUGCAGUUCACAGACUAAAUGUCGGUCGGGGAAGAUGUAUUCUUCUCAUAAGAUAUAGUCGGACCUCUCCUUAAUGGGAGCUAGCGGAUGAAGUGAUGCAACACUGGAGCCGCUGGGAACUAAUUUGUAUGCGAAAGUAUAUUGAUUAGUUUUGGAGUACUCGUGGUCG
run_conditions: 30 °C
Please give the numeric answer without any surrounding text.

Answered examples (5):
{"chain": "AGCAAGCAAUAUUACGCAAC", "self-splicing fitness (ln)": -3.99}
{"chain": "GCUCAGCAAUAUUACGUCCA", "self-splicing fitness (ln)": -1.28}
{"chain": "UAGGAGCAAUAUUACGACGA", "self-splicing fitness (ln)": -1.21}
{"chain": "UACGAGCAAUAUUACGCAGU", "self-splicing fitness (ln)": -3.15}
{"chain": "AAAAAGCAAUAUUACGCAAA", "self-splicing fitness (ln)": -1.15}

*Q* Please list self-splicing fitness (ln) recorded for the sequence UGCAAGCAAUAUUACGUUCC
*A* -3.72

*Q* Please list self-splicing fitness (ln) recorded for the sequence UCACAGCAAUAUUACGCGGA
*A* -1.81

*Q* Please list self-splicing fitness (ln) recorded for the sequence GCAUAGCAAUAUUACGACCC
*A* -0.0863

*Q* Please list self-splicing fitness (ln) recorded for the sequence AAAAAGCAAUAUUACGUUAA
*A* -2.66

*Q* Please list self-splicing fitness (ln) recorded for the sequence CGAAAGCAAUAUUACGGUGU
*A* -2.55

---

test_description: self-splicing fitness, log relative to wild type (ln ratio); higher = more splicing; Tetrahymena group I intron in knt gene, E. coli kanamycin selection, DiMSum; sequences stand for … in CUCUCU…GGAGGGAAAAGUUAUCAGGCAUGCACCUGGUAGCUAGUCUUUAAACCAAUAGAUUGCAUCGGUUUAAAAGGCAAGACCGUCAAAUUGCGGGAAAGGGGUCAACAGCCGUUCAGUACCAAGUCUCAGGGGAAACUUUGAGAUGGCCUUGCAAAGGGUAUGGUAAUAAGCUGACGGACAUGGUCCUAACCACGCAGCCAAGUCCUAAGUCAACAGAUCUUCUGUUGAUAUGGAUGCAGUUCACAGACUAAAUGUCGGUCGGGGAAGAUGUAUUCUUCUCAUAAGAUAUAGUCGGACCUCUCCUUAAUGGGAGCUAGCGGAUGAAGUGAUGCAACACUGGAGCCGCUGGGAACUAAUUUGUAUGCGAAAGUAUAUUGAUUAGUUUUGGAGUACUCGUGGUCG
run_conditions: 37 °C
Classification field: enter Condition met for self-splicing fitness (ln) values not below -1, Condition not met for values below it.

{"chain": "ACAAAGCAAUAUUACGAGAA", "class_name": "Condition not met"}

*Q* Test whether the sequence GUCAAGCAAUAUUACGGAAA records self-splicing fitness (ln) of -1 or higher.
*A* Condition not met

*Q* Test whether the sequence AUCAAGCAAUAUUACGUCUU records self-splicing fitness (ln) of -1 or higher.
*A* Condition met

*Q* Test whether the sequence UGCAAGCAAUAUUACGCUCA records self-splicing fitness (ln) of -1 or higher.
*A* Condition met

*Q* Test whether the sequence AAAAAGCAAUAUUACGCAAA records self-splicing fitness (ln) of -1 or higher.
*A* Condition not met

*Q* Test whether the sequence CGUCAGCAAUAUUACGGGCC records self-splicing fitness (ln) of -1 or higher.
*A* Condition met

*Q* Test whether the sequence UUAUAGCAAUAUUACGUGUA records self-splicing fitness (ln) of -1 or higher.
*A* Condition not met

---

# Lookup of reported self-splicing fitness (ln) keyed by entry
test_description: self-splicing fitness, log relative to wild type (ln ratio); higher = more splicing; Tetrahymena group I intron in knt gene, E. coli kanamycin selection, DiMSum; sequences stand for … in CUCUCU…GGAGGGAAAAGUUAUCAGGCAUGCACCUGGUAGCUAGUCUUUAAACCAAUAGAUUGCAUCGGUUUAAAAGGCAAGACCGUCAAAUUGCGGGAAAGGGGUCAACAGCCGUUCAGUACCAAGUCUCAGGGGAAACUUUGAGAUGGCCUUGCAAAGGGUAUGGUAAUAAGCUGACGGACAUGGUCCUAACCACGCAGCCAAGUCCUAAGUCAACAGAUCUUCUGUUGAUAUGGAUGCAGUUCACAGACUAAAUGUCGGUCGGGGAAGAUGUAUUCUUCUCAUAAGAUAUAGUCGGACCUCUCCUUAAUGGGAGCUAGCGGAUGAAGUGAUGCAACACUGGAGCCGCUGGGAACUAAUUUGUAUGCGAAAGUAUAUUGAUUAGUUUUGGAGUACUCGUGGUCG
run_conditions: 30 °C
Please give the numeric answer without any surrounding text.

{"chain": "CUCGAGCAAUAUUACGGAAA", "self-splicing fitness (ln)": -2.9}
{"chain": "GCUAAGCAAUAUUACGUGCG", "self-splicing fitness (ln)": -1.07}
{"chain": "UGCCAGCAAUAUUACGUGGA", "self-splicing fitness (ln)": -3.33}
{"chain": "AUAAAGCAAUAUUACGACGA", "self-splicing fitness (ln)": -0.00868}
{"chain": "AGUCAGCAAUAUUACGAUCU", "self-splicing fitness (ln)": -0.19}

*Q* Please list self-splicing fitness (ln) recorded for the sequence GAUUAGCAAUAUUACGCUCU
*A* -1.26

*Q* Please list self-splicing fitness (ln) recorded for the sequence UCAUAGCAAUAUUACGCGAA
*A* -2.95

*Q* Please list self-splicing fitness (ln) recorded for the sequence AGAUAGCAAUAUUACGACCG
*A* -1.01

*Q* Please list self-splicing fitness (ln) recorded for the sequence GAGCAGCAAUAUUACGAUCG
*A* -2.76

*Q* Please list self-splicing fitness (ln) recorded for the sequence AGCUAGCAAUAUUACGACAU
*A* -0.509

*Q* Please list self-splicing fitness (ln) recorded for the sequence ACUGAGCAAUAUUACGCAAC
*A* -3.87

*Q* Please list self-splicing fitness (ln) recorded for the sequence AAUCAGCAAUAUUACGUGCU
*A* -3.39

*Q* Please list self-splicing fitness (ln) recorded for the sequence UAUUAGCAAUAUUACGAACG
*A* -0.156

*Q* Please list self-splicing fitness (ln) recorded for the sequence UACUAGCAAUAUUACGCGGG
*A* -3.19

*Q* Please list self-splicing fitness (ln) recorded for the sequence CUUAAGCAAUAUUACGUCAA
*A* -3.38
